# System: ACHN renal
# ASSAY_TEXT: NCI-60 one-dose screen, 48 h (100 = growth as untreated, 0 = no growth, -100 = all killed)
# DETAILS: 10 µM unless noted
Compounds without any hit were thinned out: in the full panel of roughly 83,000, 20% have a hit. The source made the active and inactive calls. How the source made its calls: active means growth percent below 10; inactive means the rest.
MEASURED_ENDPOINT: growth

Example entries and their recorded answers appear below.
COMPOUND | growth
C#C[C@]1(O)CC[C@H]2[C@@H]3CC=C4c5nc(Nc6ccc(OC)cc6OC)sc5CC[C@]4(C)[C@H]3CC[C@@]21C | 32.6% (inactive)
CC1(C)C(=NO)C(C)(C)C1=NO | 112% (inactive)
CC(C)[C@H]1COC(=O)N1[C@@H]1C(=O)N([C@@H](CCC(=O)N2CCN(C3CCCC3)CC2)C(=O)N[C@@H]2CCCc3ccccc32)[C@@H]1/C=C/c1cccc(Cl)c1 | 57.8% (inactive)
O=C(OCc1ccc2c(Cl)cc(Cl)c(O)c2n1)N1CCNCC1 | 14% (inactive)
C=CCCC1(C)NC(=O)NC1=O (stereo not given) | 112% (inactive)
Cn1cc(-c2nnc(-c3ccccc3)s2)c2cc(Br)cnc21 | 66.7% (inactive)
COc1ccc(C(C(=O)O)c2ccc(OC)cc2)cc1 | 109% (inactive)
COc1ccc(-c2cc(-c3ccccc3)nc(NCCNc3ccnc4cc(Cl)ccc34)n2)cc1 | -94.2% (active)
O=C1NC(=O)C(Cc2ccccc2)(Cc2ccccc2)N1 | 109% (inactive)
CC1Cc2c(ncnc2-n2cnc3ccccc32)N(C)c2ccccc21 (stereo not given) | 55.7% (inactive)

Value (growth, ACHN renal) for record COc1ccc(NC(=O)Nc2ccc(-c3cccnc3)cc2N2CCC(CO)CC2)cc1 = 97.3% (inactive)

Value (growth, ACHN renal) for record CC(C)(C)c1cc(C(=O)Nc2cc3ccccc3cc2C(=O)NCCN)cc(C(C)(C)C)c1 = -92.3% (active)

Value (growth, ACHN renal) for record CCOC(=O)/C(C#N)=C(\C)CCc1ccccc1 = 101% (inactive)

Value (growth, ACHN renal) for record O=C(Nc1cc(F)cc2cccnc12)c1cnc(N2CCNCC2)cn1 = 28.4% (inactive)

Value (growth, ACHN renal) for record Nc1nc(SCc2cccc([N+](=O)[O-])c2)c2[nH]cnc2n1 = 99.6% (inactive)

* * *

# Test system: SF-268 CNS
# ASSAY_TEXT: NCI-60 one-dose screen, 48 h
# DETAILS: 10 µM unless noted
Compounds without any hit were thinned out: in the full panel of roughly 83,000, 20% have a hit. Activity calls are given as the source filed them. How the source made its calls: active means growth percent below 10; inactive means the rest.
Hi there, use one of these labels in your reply, thanks! t = active, f = inactive

Example entries begin here.
COMPOUND | ANSWER_LABEL
O=C(O)c1cc([N+](=O)[O-])ccc1Br | f
Cc1cccc([N+](=O)[O-])c1I | f
Cn1cc(-c2nnc(-c3cn(C)c4ncc(Br)cc34)s2)c2cc(Br)ccc21 | f
COc1ncc(-c2ccc3nc(N)n(-c4ccccc4C(F)(F)F)c(=O)c3c2)cc1S(=O)(=O)Nc1ccc(F)cc1F | f

For C[N+](C)(C)c1ncnc2[n-]cnc12 , what call appears in the results of this test?
f

For O=c1[nH]cnc2c1ccn2C1OC(CO)C(O)C1O (configuration not stated) , what call appears in the results of this test?
f

For C=C(C)[C@@H]1CC[C@]2(C(=O)N3CCN(C)CC3)CC[C@]3(C)[C@H](CC[C@@H]4[C@@]5(C)C/C(=C/c6ccncc6)[C@H](O)C(C)(C)[C@@H]5CC[C@]43C)[C@@H]12 , what call appears in the results of this test?
t

For CCCCCC1CCCCN1C(=O)OCCCC (configuration not stated) , what call appears in the results of this test?
f

For COC(=O)[C@H](CC(C)C)NC(=O)NC(=O)NC(=O)CI , what call appears in the results of this test?
f

For C[n+]1cccc(NC(=O)c2ccc3ccc4ccc(C(=O)Nc5ccc[n+](C)c5)nc4c3n2)c1 , what call appears in the results of this test?
f

For Brc1ccc2c(c1)CN(C1CCCCC1)CO2 , what call appears in the results of this test?
f

For COc1ccc(C(=O)CSc2nccc(Nc3ccc(C(=O)O)cc3)n2)cc1 , what call appears in the results of this test?
f

For COc1cc2c(c(OC)c1)C1c3cc(OC)ccc3NC(=O)N1CC2 (configuration not stated) , what call appears in the results of this test?
f

For c1cc2ccc1CNCCN1CCNCc3ccc(cc3)Oc3ccc(cc3)CNCCN(CCNCc3ccc(cc3)O2)CCNCc2ccc(cc2)Oc2ccc(cc2)CNCC1 , what call appears in the results of this test?
t

For CC1(C(=O)O)CCC(N)(C(=O)O)C1(C)C (configuration not stated) , what call appears in the results of this test?
f

For CC(C)c1ccc(C(=O)Nc2nc3ccc(O)cc3s2)cc1 , what call appears in the results of this test?
f

For COc1ccc(/C=C2\N=C(Nc3ccccc3)N(NC(=O)c3ccccn3)C2=O)cc1 , what call appears in the results of this test?
f

* * *

# Test system: T-47D breast
# ASSAY_TEXT: NCI-60 one-dose screen, 48 h
# DETAILS: 10 µM unless noted
# Procedure: Growth inhibition of the T-47D human tumor cell line is measured as a screen for anti-cancer activity. Cells are grown in 96 well plates and exposed to the test compound for 48 hours. Compounds are tested at a single concentration, which is 10^-5 M for most compounds. The reported endpoint is percent growth (GI% or GIPRCNT), where numbers from 0 - 100% represent growth inhibition, and numbers from -100% - 0 represent cell death. For example, a value of 40 represents 60% growth inhibition. […]
Compounds without any hit were thinned out: in the full panel of roughly 83,000, 20% have a hit. Activity calls are given as the source filed them. Rule for the calls: active = growth percent below 10; inactive = the rest.
Hi there, use one of these labels in your reply, thanks! yes (active), no (inactive)

Example entries begin here.
COMPOUND | ASSAY_TARGET | ANSWER_LABEL
Cc1ccc(NC(=O)N[C@@H](Cc2cc(F)cc(F)c2)C(=O)N[C@@H]2C(=O)N3CCC[C@H]3C(=O)N3CCOC[C@H]3C(=O)N[C@@H](C)C(=O)N3C[C@H](C)C[C@H]3C(=O)O[C@H]2C)cc1 | T-47D breast | no
Cc1cnc(N)nc1OCC(C)(C)CNC(=O)c1cccc(-c2ccc(S(=O)(=O)Nc3ccc4c(c3)N(C(=O)C3CC3)CCC4)cc2)c1 | T-47D breast | no
C=C(C)[C@@H]1CC[C@]2(C)[C@H](CC[C@@H]3[C@@H]([C@@](C)(O)CCC=C(C)C)CC[C@]32C)[C@@]1(C)CCC(=O)O | T-47D breast | no
Cc1cc(SC#N)ncn1 | T-47D breast | no
CC(C)[N+](C)(C)CC(O)COc1cccc2ccccc12 (stereo unspecified) | T-47D breast | no

For Cc1ccc(-c2cc(O)c(-c3ccc(C)cc3C)cc2O)c(C)c1 , what call appears in the results of this test?
no

For C=C(C)[C@@H]1CC[C@]2(C(=O)OC)CC[C@]3(C)[C@H](CC[C@@H]4[C@@](C)(CCc5nn[nH]n5)[C@H](C(=C)C)CC[C@]43C)[C@@H]12 , what call appears in the results of this test?
yes

For Oc1ccc(N=Nc2nccs2)c(O)c1 , what call appears in the results of this test?
no

For CC[C@]1(O)CC2CN(CCc3c([nH]c4ccccc34)[C@@](C(=O)OC)(c3cc4c(cc3OC)N(C=O)[C@H]3[C@@](O)(C(=O)OC)[C@H](OC(C)=O)[C@]5(CC)C=CCN6CC[C@]43[C@@H]65)C2)C1 (stereo partly specified) , what call appears in the results of this test?
no

For O=C(Nc1cccnc1)c1ccc2ccc3ccc(C(=O)Nc4cccnc4)nc3c2n1 , what call appears in the results of this test?
no

For COC(=O)[C@@H](NC(=O)NC(=O)NC(=O)CI)C(C)C , what call appears in the results of this test?
no

* * *

This section presents compounds with their documented growth values.
# Test system: COLO 205 colon
# ASSAY_TEXT: NCI-60 one-dose screen, 48 h (100 = growth as untreated, 0 = no growth, -100 = all killed)
# DETAILS: 10 µM unless noted
Compounds without any hit were thinned out: in the full panel of roughly 83,000, 20% have a hit. Activity calls are given as the source filed them. The calls were made as follows: active = growth percent below 10; inactive = the rest.

Value (growth, COLO 205 colon) for record C/C=C/C1OC23CCCCC2C(C#N)(C(=N)O3)C1(C#N)C#N (stereo not given) = 91.6% (inactive)

Value (growth, COLO 205 colon) for record C=CCCCCCCCCC(=O)OC(C)C = 105% (inactive)

* * *

# System: NCI-H460 lung
# ASSAY_TEXT: NCI-60 one-dose screen, 48 h (100 = growth as untreated, 0 = no growth, -100 = all killed)
# DETAILS: 10 µM unless noted
Compounds without any hit were thinned out: in the full panel of roughly 83,000, 20% have a hit.
Where growth equals or exceeds 20%, the correct label is yes; where it does not, the label is no.

Example entries begin here.
SMILES_TEXT | ANSWER_LABEL
Brc1ccc2c(c1)CN(C1CCCCC1)CO2 | yes
Cc1ccc(-n2nc3n(/c2=N\C(=O)NS(=O)(=O)c2ccc(C)cc2)CCN3C2=NCCN2)cc1 | yes
CCCSc1nc(N)nc2nc[nH]c12 | yes

Does CC(C)(C)c1cc(C(=O)Nc2cc3ccccc3cc2C(=O)NCCN)cc(C(C)(C)C)c1 have a reported growth of at least 20%?
no

Does Cc1ccc(-c2cc(O)c(-c3ccc(C)cc3C)cc2O)c(C)c1 have a reported growth of at least 20%?
yes

Does O=C(CSc1nc2ccc([N+](=O)[O-])cc2[nH]1)Nc1cccc(Cl)c1 have a reported growth of at least 20%?
yes

Does COc1cccc(-c2[nH]c(=S)ncc2C(=O)c2ccccc2)c1 have a reported growth of at least 20%?
yes

Does Cc1cccc(C[C@H](NC(=O)Nc2ccc(Cl)cc2F)C(=O)N[C@@H]2C(=O)N3C[C@H](OC(=O)CCN(C)C)C[C@H]3C(=O)N3CCCC[C@H]3C(=O)N[C@@H](C)C(=O)N3C[C@H](C)C[C@H]3C(=O)O[C@H]2C)c1 have a reported growth of at least 20%?
no

Does c1ccc(-c2nc(N3CCCNCC3)c3nc(-c4ccccc4)oc3n2)cc1 have a reported growth of at least 20%?
no
